// data source = patent US20100029654A1

# LDH (% of ctl) values compiled below
System: primary cortico-hippocampal neuron cultures
ASSAY_OVERVIEW: lactate dehydrogenase (LDH) activity assay in parallel neuron cultures
CONDITION: Primary Screening; table sorted by Aβ1-40

Take a look at these entries with their results.
MOLECULE	OUTCOME_MEASURE	REPORTED_MEASUREMENT
Nc1nc(N)c2nc(-c3ccccc3)c(N)nc2n1	LDH (% of ctl)	103.3 % of ctl
CC(C)(Sc1cc(C(C)(C)C)c(O)c(C(C)(C)C)c1)Sc1cc(C(C)(C)C)c(O)c(C(C)(C)C)c1	LDH (% of ctl)	109.3 % of ctl
C=C[C@H]1C[N@@]2CC[C@H]1C[C@@H]2[C@@H](O)c1ccnc2ccc(OC)cc12 [Quinidine Gluconate]	LDH (% of ctl)	357.6 % of ctl
CCCc1nc2c(C)cc(-c3nc4ccccc4n3C)cc2n1Cc1ccc(-c2ccccc2C(=O)O)cc1	LDH (% of ctl)	111.3 % of ctl
CO[C@]12C[C@@H](COC(=O)c3cncc(Br)c3)CN(C)[C@@H]1Cc1cn(C)c3cccc2c13	LDH (% of ctl)	106.2 % of ctl

Challenge: Would you kindly share the measured LDH (% of ctl) for COc1ccc2c(c1OC)C(=O)O[C@H]2[C@@H]1c2cc3c(cc2CCN1C)OCO3 [1S,9R-Beta-HYDRASTINE] ?
Response given: 114.2 % of ctl

Challenge: Field entry: CCOC(=O)[C@H](CCc1ccccc1)N[C@@H](C)C(=O)N1[C@H](C(=O)O)C[C@H]2CCCC[C@@H]21
Response given: 95.5 % of ctl

Challenge: Field entry: NC[C@H]1CC[C@H](C(=O)O)CC1
Response given: 112.8 % of ctl

###

Tested on: primary cortico-hippocampal neuron cultures
ASSAY_OVERVIEW: lactate dehydrogenase (LDH) activity assay in parallel neuron cultures
CONDITION: primary screening; table sorted by Aβ1-42
Where a name gives a salt, the structure may show the parent alone.
# LDH (% of ctl) values compiled below

MOLECULE	REPORTED_MEASUREMENT
COC(=O)[C@H]1[C@H]2C[C@@H]3c4[nH]c5cc(OC)ccc5c4CCN3C[C@H]2C[C@@H](OC(=O)c2cc(OC)c(OC)c(OC)c2)[C@@H]1OC	157.8 % of ctl
CCN(CC)CCOC(=O)C(Cc1cccc2ccccc12)CC1CCCO1 (stereo not shown) [Nafronyl Oxalate]	96.6 % of ctl
COc1ccc(C2C(=O)c3ccccc3C2=O)cc1	148.9 % of ctl
CC(C)(C)NC[C@H](O)COc1nsnc1N1CCOCC1 [Timolol Maleate]	104.4 % of ctl

Challenge: Would you kindly share the measured LDH (% of ctl) for CC(=O)O[C@H]1C[C@H](O[C@H]2[C@@H](O)C[C@H](O[C@H]3[C@@H](O)C[C@H](O[C@H]4CC[C@@]5(C)[C@H](CC[C@@H]6[C@@H]5C[C@@H](O)[C@]5(C)[C@@H](C7=CC(=O)OC7)CC[C@]65O)C4)O[C@@H]3C)O[C@@H]2C)O[C@H](C)[C@H]1O[C@@H]1O[C@H](CO)[C@@H](O)[C@H](O)[C@H]1O [Lanatoside C] ?
Response given: 166.0 % of ctl

Challenge: Field entry: Nc1cc(N2CCCCC2)nc(N)[n+]1[O-]
Response given: 117.1 % of ctl

Challenge: Field entry: CCCCNc1cc(C(=O)O)cc(S(N)(=O)=O)c1Oc1ccccc1 [Bumetanide]
Response given: 118.1 % of ctl
